Target: Dual specificity calcium/calmodulin-dependent 3',5'-cyclic nucleotide phosphodiesterase 1B (Homo sapiens, UniProt Q01064)
Sequence (Q01064 whole entry, the tested form may be a part): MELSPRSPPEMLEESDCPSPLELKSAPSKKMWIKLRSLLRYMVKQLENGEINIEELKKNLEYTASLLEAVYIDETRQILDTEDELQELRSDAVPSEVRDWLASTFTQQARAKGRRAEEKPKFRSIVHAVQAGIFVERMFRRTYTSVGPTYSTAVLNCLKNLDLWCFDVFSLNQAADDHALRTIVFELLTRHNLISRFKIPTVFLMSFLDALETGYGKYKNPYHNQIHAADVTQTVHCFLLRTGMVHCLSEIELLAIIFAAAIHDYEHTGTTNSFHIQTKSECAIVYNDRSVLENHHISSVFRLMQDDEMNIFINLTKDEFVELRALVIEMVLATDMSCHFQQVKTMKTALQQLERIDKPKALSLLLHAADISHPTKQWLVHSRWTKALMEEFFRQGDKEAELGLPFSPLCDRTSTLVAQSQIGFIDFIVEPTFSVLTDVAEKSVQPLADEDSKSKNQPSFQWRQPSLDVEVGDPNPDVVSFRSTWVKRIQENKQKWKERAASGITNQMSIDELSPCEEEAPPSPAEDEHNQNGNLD
Test: Inhibition of PDE1B catalytic domain (10 to 487 residues) (unknown origin) expressed in Escherichia coli BL21 cells
endpointName: IC50

1) Cc1ccc2c(c1)nc(CCN1C(=O)c3cccc4cccc(c34)C1=O)n2-c1ccncc1
> 20 µM

----------
Biological target: Fibroblast growth factor receptor 3 (Homo sapiens, UniProt P22607)
Sequence (P22607 whole entry): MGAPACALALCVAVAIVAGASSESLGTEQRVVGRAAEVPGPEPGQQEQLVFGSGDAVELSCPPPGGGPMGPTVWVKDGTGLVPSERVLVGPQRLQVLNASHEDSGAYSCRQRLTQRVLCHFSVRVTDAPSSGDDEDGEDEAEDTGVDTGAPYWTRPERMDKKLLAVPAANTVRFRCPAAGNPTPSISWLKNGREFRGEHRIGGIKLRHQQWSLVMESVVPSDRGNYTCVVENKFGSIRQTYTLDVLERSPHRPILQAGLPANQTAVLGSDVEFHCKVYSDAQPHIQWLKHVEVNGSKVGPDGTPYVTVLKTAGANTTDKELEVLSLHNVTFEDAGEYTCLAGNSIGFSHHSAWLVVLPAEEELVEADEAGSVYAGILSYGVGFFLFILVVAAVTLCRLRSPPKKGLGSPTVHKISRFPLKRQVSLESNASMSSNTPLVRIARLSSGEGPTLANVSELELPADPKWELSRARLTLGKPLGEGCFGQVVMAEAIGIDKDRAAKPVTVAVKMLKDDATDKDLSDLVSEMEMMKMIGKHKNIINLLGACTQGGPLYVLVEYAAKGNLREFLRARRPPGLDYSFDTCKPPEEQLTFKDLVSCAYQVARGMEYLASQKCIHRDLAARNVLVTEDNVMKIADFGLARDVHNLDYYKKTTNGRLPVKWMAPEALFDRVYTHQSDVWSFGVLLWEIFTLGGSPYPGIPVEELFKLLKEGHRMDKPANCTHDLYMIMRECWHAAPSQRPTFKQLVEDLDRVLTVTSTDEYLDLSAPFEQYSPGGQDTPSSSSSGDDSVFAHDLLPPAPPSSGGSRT
Assay: Inhibition of FGFR3 (unknown origin)
endpointName: IC50

1. Cc1ccc2c(c1)nc(CCN1C(=O)c3cccc4cccc(c34)C1=O)n2-c1ccncc1
> 10 µM

----------
IC50, cAMP and cAMP-inhibited cGMP 3',5'-cyclic phosphodiesterase 10A (Homo sapiens), per-entry values.
endpointName: IC50 (µM)

1) Cc1ccc2c(c1)nc(CCN1C(=O)c3cccc4cccc(c34)C1=O)n2-c1ccccc1
0.00076
2) Cc1cc(C)n2cc(CSc3nc(-c4ccccc4)cc(C(F)(F)F)n3)nc2n1
0.039
3) Cc1cnc2c(c1)nc(CCN1C(=O)c3cccc4cccc(c34)C1=O)n2-c1ccncc1
0.023
4) O=C1c2cccc3cccc(c23)C(=O)N1CCc1nc2cc(F)ccc2n1C1CCOCC1
0.287

Cited source for all entries: ChEMBL document CHEMBL4354796
